Test system: MOLT-4 leukemia
Test protocol: NCI-60 one-dose screen, 48 h (100 = growth as untreated, 0 = no growth, -100 = all killed)
Condition label: 10 µM unless noted
This is part of a sample that, as a whole, favours compounds with a hit. Of some 83,000 tested, about 20% had one in any assay.
Outcome measure: growth (%)
Could you give me the number in %? Just the number is fine.

Tell us which growth value is on record for COc1ccc(-c2oc(=O)ccc2-c2cc(OC)c(OC)c(OC)c2)cc1O
20.5

Tell us which growth value is on record for COc1ccc2cc(-c3ccc(-c4ccc(C(=N)N)s4)s3)ccc2c1
1.6

Tell us which growth value is on record for O=C(/C=C/c1cccc(Cl)c1)c1cccc(OCCCCOc2cccc(C(=O)/C=C/c3cccc(Cl)c3)c2)c1
89

Tell us which growth value is on record for Nc1c(C(=O)Nc2cccc3ncccc23)sc2nc3c(cc12)C(=O)CCC3
66.6

Tell us which growth value is on record for COc1ccc(C2=C/C(=C\c3ccc(Cl)cc3)C(=O)N2/N=C/c2ccc(Cl)cc2)cc1
92

----------
Tested on: SN12C renal
Test protocol: NCI-60 one-dose screen, 48 h (100 = growth as untreated, 0 = no growth, -100 = all killed)
Condition label: 10 µM unless noted
Compounds without any hit were thinned out: in the full panel of roughly 83,000, 20% have a hit. Calls of active or inactive are those of the source. Rule for the calls: active = growth percent below 10; inactive = the rest.
growth values, listed per item

# annotated cases, reported growth shown
- Smi: "CCn1cc(C(=O)NN=C2CCCCCC2)c(=O)c2ccc(C)nc21"
  Tested on: "SN12C renal"
  growth: "85.5% (inactive)"
- Smi: "Cc1cc(F)ccc1S(=O)(=O)Nc1cc(-c2c(O)ccc3ccccc23)c(O)c2ccccc12"
  Tested on: "SN12C renal"
  growth: "46.6% (inactive)"
- Smi: "Cn1cc(-c2nc(-c3c[nH]c4ccncc34)cs2)c2cc(Br)ccc21"
  Tested on: "SN12C renal"
  growth: "-74.4% (active)"
- Smi: "N#Cc1c(NC(=O)c2cccs2)[n+]([O-])c2ccc(Cl)cc2[n+]1[O-]"
  Tested on: "SN12C renal"
  growth: "99.8% (inactive)"

Alright, here's another molecule for you.
Give growth only, for CCCCn1sc(=O)n(Cc2ccc(CNC(=O)OCc3ccc4c(Cl)cc(Cl)c(O)c4n3)cc2)c1=O , using SN12C renal data.
57.6% (inactive)

----------
Test system: DU-145 prostate
Test protocol: NCI-60 one-dose screen, 48 h
Condition label: 10 µM unless noted
The panel holds about 83,000 compounds, 20% with a hit somewhere; the sample as a whole holds those more often. The source made the active and inactive calls. The calls were made as follows: active = growth percent below 10; inactive = the rest.
Pick one: 1 = active, 0 = inactive

Answered examples (3):
- Molecule: "O=C(/C=C/c1cccc(Cl)c1)c1cccc(OCCCCOc2cccc(C(=O)/C=C/c3cccc(Cl)c3)c2)c1"
  Class: 0
- Molecule: "COc1cc2c3c(n(CCCCNCCCn4c5c(c6cc(OC)c(OC)cc6c4=O)C(=O)c4cc6c(cc4-5)OCO6)c(=O)c2cc1OC)-c1cc2c(cc1C3=O)OCO2"
  Class: 0
- Molecule: "COC(=O)c1nc(-c2ccccc2)oc1S(=O)(=O)N1CCC(C(N)=O)CC1"
  Class: 0

Assay result, entry COC(=O)c1ccc2c(c1)c1c(C)c3ccncc3c(C)c1n2C — outcome?
0

Assay result, entry CC(O)c1ncc(/C=C2\SC(=S)N(Cc3ccccc3)C2=O)s1 (configuration not stated) — outcome?
0

Assay result, entry Cc1c(N2CN3C[C@H](C)N4CN(c5c(C)n(C)n(-c6ccccc6)c5=O)CN5C[C@@H](C)N(C2)C3C54)c(=O)n(-c2ccccc2)n1C (some centres not stated) — outcome?
0

Assay result, entry CCCCCn1sc(=O)n(Cc2ccc(CNC(=O)OCc3ccc4c(Cl)cc(Cl)c(O)c4n3)cc2)c1=O — outcome?
0

Assay result, entry Cn1cc(-c2nc(-c3c[nH]c4ccncc34)cs2)c2cc(Br)ccc21 — outcome?
1

Assay result, entry COc1ncc2cc1NS(=O)(=O)c1cccc(c1)C(=O)NCC1=CC=C(S1)c1ncnc3c1SC2=C3C — outcome?
1

Assay result, entry Cc1nn(-c2ccccc2)c(N2CCCCC2)c1/C=N/NC(=O)Cn1c(=O)sc2ccccc21 — outcome?
0

Assay result, entry O=C(NCc1ccc2c(c1)OCO2)NCC1CCCC(CNC(=O)NCc2ccc3c(c2)OCO3)C1 (configuration not stated) — outcome?
0

Assay result, entry CCCNc1nc2ccccc2c2c(=O)c3cccc(Cl)c3sc12 — outcome?
0

Assay result, entry O=C(O)C1CN(c2cccc(Cl)c2)N(c2cccc(Cl)c2)C1=O (configuration not stated) — outcome?
0

Assay result, entry COC(=O)Cc1nc(C#N)c(N(C)C)o1 — outcome?
0

Assay result, entry CCN(CCO)CC(C)Nc1ccc([N+](=O)[O-])c2sc3ccccc3c(=O)c12 (configuration not stated) — outcome?
0

Assay result, entry CC1O[C@@H]2C[C@@](O)([C@H]1O)n1c3ccccc3c3c4c(c5c6ccccc6n2c5c31)C(=O)NC4=O (some centres not stated) — outcome?
0

Assay result, entry COc1cc2cc(Oc3ccc(NC(=O)Nc4ccccc4)cc3)c(C)nc2cc1OCCN1CCCCC1 — outcome?
0

Assay result, entry CCCCCCCC/C=C\CCCCCCCCOc1ccc(CC(=O)NCC[N+](C)(C)C)cc1 — outcome?
0

Assay result, entry CN1CCN(c2ccc(NC(=O)c3cncnc3Nc3ccc4c(ccn4Cc4cccc(F)c4)c3)cc2)CC1 — outcome?
0

Assay result, entry CCCCCCNc1nc(NCCCCCC)c2[nH]c(NCCCCCC)nc2n1 — outcome?
0

Assay result, entry CCOC(=O)c1c(NC(=O)CSc2n[nH]c3nc4ccccc4n23)sc(CC)c1C — outcome?
0

Assay result, entry COc1ccc(NC(=O)c2sc3nc4c(cc3c2N)CCCC4)cc1 — outcome?
0

Assay result, entry Cn1ccnc1C(=O)/C=C/c1ccc(C(=O)Nc2ccc(F)cc2)cc1 — outcome?
0

Assay result, entry CN1C(=O)/C(=C/c2ccc(C(=O)Nc3ncc(Cc4ccc(F)cc4)s3)cc2)SC1=S — outcome?
0

Assay result, entry Cn1c(=O)c2c(c3ccccc31)OC(N)=C(C#N)C21C(=O)c2ccccc2C1=O — outcome?
0

Assay result, entry Cn1cc(/C=C2/C(=O)Nc3ccccc32)c2ccccc21 — outcome?
0

Assay result, entry COc1ccc2cc(-c3ccc(-c4ccc(C(=N)N)s4)s3)ccc2c1 — outcome?
1

----------
System: HCT-15 colon
Test protocol: NCI-60 one-dose screen, 48 h (100 = growth as untreated, 0 = no growth, -100 = all killed)
Condition label: 10 µM unless noted
About 83,000 compounds went through this panel and 20% of them were active in at least one assay; those are over-represented in the sample as a whole.
Classify: criterion met when growth is strictly less than 90%; criterion not met when growth is not.

- Smi: "CCn1cc(C(=O)NN=C2CCCCCC2)c(=O)c2ccc(C)nc21"
  Class: "criterion met"
- Smi: "O=C(Nc1ccccc1O)c1ccccc1Nc1ccnc(C(F)(F)F)c1"
  Class: "criterion not met"
- Smi: "COc1ccc(-c2cc(-c3cc(OC)c(OC)c(OC)c3)c(C#N)c(=O)n2CCCCCC(=O)NO)cc1"
  Class: "criterion met"
- Smi: "CCOC(=O)CSc1nc2sc3c(c2c(=O)n1-c1ccc([N+](=O)[O-])cc1)CCCCC3"
  Class: "criterion met"

Now for another entry.
Given O=c1[nH]c(-c2ccc(Cl)cc2)cn1-c1ccc(-n2cc(-c3ccc(Cl)cc3)[nH]c2=O)cc1 , is recorded growth strictly lower than 90%?
criterion not met

----------
growth values, listed per item
Test system: TK-10 renal
Test protocol: NCI-60 one-dose screen, 48 h (100 = growth as untreated, 0 = no growth, -100 = all killed)
Condition label: 10 µM unless noted
This is part of a sample that, as a whole, favours compounds with a hit. Of some 83,000 tested, about 20% had one in any assay.
Could you give me the number in %? Just the number is fine.

# annotated cases, reported growth shown
- Compound: "CN(C)c1ccc(/C=C/C(=O)c2ccccc2)cc1"
  growth [%]: 74.5
- Compound: "Cn1cc(-c2csc(-c3cn(C)c4ccc(Br)cc34)n2)c2cnccc21"
  growth [%]: -75.7
- Compound: "CCn1cc(C(=O)NN=C2CCCCCC2)c(=O)c2ccc(C)nc21"
  growth [%]: 95.7
- Compound: "C=C1C(=O)O[C@H]2[C@H]1CC/C(COC(=O)NCCCCCCCCNC(=O)OC/C1=C/CC[C@@]3(C)O[C@H]3[C@H]3OC(=O)C(=C)[C@@H]3CC1)=C\\CC[C@@]1(C)O[C@@H]21"
  growth [%]: -97.9
- Compound: "CN(C)c1ccc(/C=C2/C=C(c3ccccc3)OC2=O)cc1"
  growth [%]: 110

Tell us which growth value is on record for CCOC(=O)c1cn2ncnc(Oc3ccc(NC(=O)NC4CC4)c(F)c3)c2c1C
119

Tell us which growth value is on record for O=C(CN1C(=O)NC2NC(=O)NC21)N/N=C/c1ccc(Cl)cc1Cl (stereo not given)
101

Tell us which growth value is on record for O=C1C(Cl)=C(NCCN2CCOCC2)C(=O)c2ncccc21
28.3

Tell us which growth value is on record for Cc1nc2ccccc2c(/C=C/c2ccc(C(F)(F)F)cc2)c1C(=O)/C=C/c1ccccc1
7.75

Tell us which growth value is on record for CCOC(=O)C/C(=N\Nc1cc(=O)[nH]c2ccc(Cl)cc12)C(=O)OCC
104

Tell us which growth value is on record for CC1(C)OC(=O)C(=Cc2cccc(Br)c2)C(=O)O1
101

Tell us which growth value is on record for COc1cc(C(=O)/C=C/c2c(-c3cccs3)nc3ccccn23)cc(OC)c1OC
0.55

Tell us which growth value is on record for COc1ccc(-c2ccc(-c3ccc(C(=N)N)cn3)s2)cc1
109
